Each recorded value in this set is attributed to patent US20230277569A1.

- test: Gamitrinib pharmacokinetics (PK) in rat plasma, single IV dose
- Format: in vivo, Sprague-Dawley rats
- recorded.conditions: Sprague-Dawley, rat, plasma, iv, 5 mg/kg, 5 mg/kg IV; mean, n=3; read-out: MRT

compound: CO[C@H]1/C=C\C=C(/C)C(=O)NC2=CC(=O)C(NCCCCCC[P+](c3ccccc3)(c3ccccc3)c3ccccc3)=C(C[C@@H](C)C[C@H](OC)[C@H](O)[C@@H](C)/C=C(\C)[C@@H]1OC(N)=O)C2=O [Gamitrinib]
value.units: h
MRT: 5.49

###

- test: Toxicity in beagle dogs, IV infusion for 36 d
- Format: in vivo
- recorded.conditions: beagle, dog, in vivo, iv; dogs, 6.25 mg/kg/dose (HNSTD), d 36, both sexes

item.smiles: CO[C@H]1/C=C\C=C(/C)C(=O)NC2=CC(=O)C(NCCCCCC[P+](c3ccccc3)(c3ccccc3)c3ccccc3)=C(C[C@@H](C)C[C@H](OC)[C@H](O)[C@@H](C)/C=C(\C)[C@@H]1OC(N)=O)C2=O
Cmax / ng/mL: 1260

###

- tgt: hERG (Homo sapiens)
- Construct: expressed in transfected cells; host or cells: HEK293 (ATCC), polyclonal, stably transfected, G418 selection
- Sequence (Q12809 whole entry): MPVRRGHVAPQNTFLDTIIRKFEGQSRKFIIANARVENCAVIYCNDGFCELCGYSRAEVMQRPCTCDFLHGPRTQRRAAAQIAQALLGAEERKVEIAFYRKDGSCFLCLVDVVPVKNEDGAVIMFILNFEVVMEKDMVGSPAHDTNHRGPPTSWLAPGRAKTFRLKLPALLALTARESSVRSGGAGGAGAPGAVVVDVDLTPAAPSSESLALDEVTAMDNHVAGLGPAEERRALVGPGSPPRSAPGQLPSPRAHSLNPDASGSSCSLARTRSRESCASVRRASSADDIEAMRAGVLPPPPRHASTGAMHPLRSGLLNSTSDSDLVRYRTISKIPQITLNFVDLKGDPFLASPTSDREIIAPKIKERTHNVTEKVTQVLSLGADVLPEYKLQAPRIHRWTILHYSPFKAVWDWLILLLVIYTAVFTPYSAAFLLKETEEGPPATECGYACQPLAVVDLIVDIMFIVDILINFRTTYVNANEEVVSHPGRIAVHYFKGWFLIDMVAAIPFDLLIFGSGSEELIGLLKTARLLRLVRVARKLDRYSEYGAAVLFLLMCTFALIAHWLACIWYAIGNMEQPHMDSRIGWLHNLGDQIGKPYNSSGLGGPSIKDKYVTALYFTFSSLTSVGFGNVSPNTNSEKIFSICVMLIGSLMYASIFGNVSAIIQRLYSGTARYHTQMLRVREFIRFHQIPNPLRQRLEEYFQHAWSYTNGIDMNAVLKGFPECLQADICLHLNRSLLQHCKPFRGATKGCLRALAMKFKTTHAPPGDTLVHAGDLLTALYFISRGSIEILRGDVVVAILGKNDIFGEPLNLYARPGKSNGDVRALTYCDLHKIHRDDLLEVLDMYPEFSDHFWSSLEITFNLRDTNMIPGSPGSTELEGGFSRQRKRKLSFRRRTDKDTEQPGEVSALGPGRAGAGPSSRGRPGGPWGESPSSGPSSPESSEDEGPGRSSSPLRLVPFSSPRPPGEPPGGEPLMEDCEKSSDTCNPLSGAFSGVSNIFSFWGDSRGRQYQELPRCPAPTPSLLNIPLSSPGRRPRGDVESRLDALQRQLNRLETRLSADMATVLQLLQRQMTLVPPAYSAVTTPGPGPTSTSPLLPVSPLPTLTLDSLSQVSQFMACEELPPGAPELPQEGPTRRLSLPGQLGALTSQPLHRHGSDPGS
- test: Patch clamp recording of hERG currents in transfected HEK293 cells
- Assay type: cell-based
- recorded.conditions: human, HEK293 cells stably transfected with hERG, pH 7.4; 10 μM; transfected HEK293 cells; mean±SD
observable: inhibition at 10 µM (%)

compound: CO[C@H]1/C=C\C=C(/C)C(=O)NC2=CC(=O)C(NCCCCCC[P+](c3ccccc3)(c3ccccc3)c3ccccc3)=C(C[C@@H](C)C[C@H](OC)[C@H](O)[C@@H](C)/C=C(\C)[C@@H]1OC(N)=O)C2=O [Gamitrinib]
observable: inhibition at 10 µM
value.units: %
measurement: 81.8

###

- test: Toxicity in beagle dogs, IV infusion for 36 d
- Format: in vivo
- recorded.conditions: beagle, dog, in vivo, iv; dogs, 6.25 mg/kg/dose (HNSTD), d 36, both sexes; read-out: AUC0-24
observable: AUC(0-t) (ng·h/mL)

compound: CO[C@H]1/C=C\C=C(/C)C(=O)NC2=CC(=O)C(NCCCCCC[P+](c3ccccc3)(c3ccccc3)c3ccccc3)=C(C[C@@H](C)C[C@H](OC)[C@H](O)[C@@H](C)/C=C(\C)[C@@H]1OC(N)=O)C2=O [Gamitrinib]
observable: AUC(0-t)
measurement: 3290

###

- test: Toxicity and toxicokinetics in rats, IV twice weekly for 29 d
- Type: in vivo, Sprague-Dawley rats
- recorded.conditions: both sexes, Sprague-Dawley, rat, in vivo; rats, 1, 10 or 25 mg/kg/dose IV twice weekly; d 4 and d 29; read-out: Vss

compound: CO[C@H]1/C=C\C=C(/C)C(=O)NC2=CC(=O)C(NCCCCCC[P+](c3ccccc3)(c3ccccc3)c3ccccc3)=C(C[C@@H](C)C[C@H](OC)[C@H](O)[C@@H](C)/C=C(\C)[C@@H]1OC(N)=O)C2=O [Gamitrinib]
Vd: 12.2 to 90 L/kg
